Values from the NIST ThermoML archive (doi:10.1021/acs.jced.8b00080)

Experiment: activity coefficient (dimensionless); of the first substance listed, at infinite dilution; xn = mol fraction of the nth substance listed
Conditions: 353 K; 101.33 kPa; Liquid; Chromatography; x1 = 0
Classification field: TRUE = activity coefficient at or over 6; FALSE = activity coefficient under 6.

CC(C)=O [acetone] + C[n+]1ccn(CCO)c1.O=S(=O)([O-])C(F)(F)C(F)(F)C(F)(F)C(F)(F)F: FALSE

Is the recorded value of activity coefficient equal to or greater than 6 for this compound? C1CCCCC1 [cyclohexane] + C[n+]1ccn(CCO)c1.O=S(=O)([O-])C(F)(F)C(F)(F)C(F)(F)C(F)(F)F
TRUE

---

Test: activity coefficient (dimensionless); of the first substance listed, at infinite dilution; xn = mol fraction of the nth substance listed
Settings: 343 K; 101.33 kPa; Liquid; Chromatography; x1 = 0
Labelling: activity coefficient reported below 3 becomes satisfied; at or above becomes not satisfied.

CCCCC [pentane] + C[n+]1ccn(CCO)c1.O=S(=O)([O-])C(F)(F)C(F)(F)C(F)(F)C(F)(F)F: not satisfied
C=CCCCCCCCC [1-decene] + C[n+]1ccn(CCO)c1.O=S(=O)([O-])C(F)(F)C(F)(F)C(F)(F)C(F)(F)F: not satisfied
CO [methanol] + C[n+]1ccn(CCO)c1.O=S(=O)([O-])C(F)(F)C(F)(F)C(F)(F)C(F)(F)F: satisfied
C#CCCCC [1-hexyne] + C[n+]1ccn(CCO)c1.O=S(=O)([O-])C(F)(F)C(F)(F)C(F)(F)C(F)(F)F: not satisfied
C1CCOC1 [tetrahydrofuran] + C[n+]1ccn(CCO)c1.O=S(=O)([O-])C(F)(F)C(F)(F)C(F)(F)C(F)(F)F: satisfied

Proceed to the following item.
Is it true that activity coefficient reported for C#CCCC [1-pentyne] + C[n+]1ccn(CCO)c1.O=S(=O)([O-])C(F)(F)C(F)(F)C(F)(F)C(F)(F)F is less than 3?
not satisfied

---

Experiment: activity coefficient (dimensionless); of the first substance listed, at infinite dilution; xn = mol fraction of the nth substance listed
Settings: 343 K; 101.33 kPa; Liquid; Chromatography; x1 = 0
Measured Property: activity coefficient
Enter a number only.

# count of solved cases: 6
CCc1ccccc1 [ethylbenzene] + C[n+]1ccn(CCO)c1.O=S(=O)([O-])C(F)(F)C(F)(F)C(F)(F)C(F)(F)F: 7.93
C=CCCCC [hex-1-ene] + C[n+]1ccn(CCO)c1.O=S(=O)([O-])C(F)(F)C(F)(F)C(F)(F)C(F)(F)F: 6.07
CCCCCC [hexane] + C[n+]1ccn(CCO)c1.O=S(=O)([O-])C(F)(F)C(F)(F)C(F)(F)C(F)(F)F: 8
CCCCCCCC [octane] + C[n+]1ccn(CCO)c1.O=S(=O)([O-])C(F)(F)C(F)(F)C(F)(F)C(F)(F)F: 37.1
CCCCCCCCC [nonane] + C[n+]1ccn(CCO)c1.O=S(=O)([O-])C(F)(F)C(F)(F)C(F)(F)C(F)(F)F: 71
CC1CCCCC1 [methylcyclohexane] + C[n+]1ccn(CCO)c1.O=S(=O)([O-])C(F)(F)C(F)(F)C(F)(F)C(F)(F)F: 15.2

Okay, now this molecule:
Given the molecule CCCO [propan-1-ol] + C[n+]1ccn(CCO)c1.O=S(=O)([O-])C(F)(F)C(F)(F)C(F)(F)C(F)(F)F , what is its reported activity coefficient?
1.66
